# EXPERIMENT: COS7 lysate on small-molecule microarray, probe aHis, 635 nm (AID 1123);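 further: z-score combines 667nm fluorescence intensity with signal-to-noise per printed compound spot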
# CONDITION_CONTEXT: COS7 cell lysate, fluorescence, higher = more signal
Outcome: Y for composite z-score of at least 0.3; N for anything lower.

Recorded results for 5 compounds are shown here.
# COMPOUND, LABEL_VALUE
data = [
    ("COc1ccc(O[C@H]2C=C[C@@H](c3ccccc3)O[C@@H]2COC(=O)CCC(C)=NOC[C@@H](O)[C@H]2O[C@@H]3OC(C)(C)O[C@@H]3[C@H]2O)cc1", "Y"),
    ("CC(C)=CCCC(C)=CCON=C1C[C@@H](O)[C@@H](O)[C@@H]2[C@@H]3C(=O)N(Cc4ccccc4)C(=O)[C@@H]3CC[C@H]12", "Y"),
    ("COCOc1ccc(Br)cc1C(=O)[C@@H]1O[C@H]1c1cccc(OC)c1", "Y"),
    ("CCOC(=O)[C@H](CC(C)C)NC(=O)CCC1CC(OC(=O)NCc2cccc3ccccc23)CC2(CCCC(COC(=O)NCc3cccc(C(F)(F)F)c3)O2)O1 (stereo partly drawn)", "N"),
    ("COC(=O)NCC=Cc1nc(CCCO)co1", "Y"),
]

Query: Answer whether composite z-score of "C[C@@H](c1ccccc1)N1C(=O)[C@H]2[C@H]3[C@H](O)[C@H](O)CC(=O)[C@H]3CC[C@H]2C1=O" is greater than or equal to 0.3.
Response: N

Query: Entry "CON=C(C)CCC(=O)OC[C@H]1O[C@H](c2ccccc2)C=C[C@@H]1Oc1ccc(OC)cc1" : is its composite z-score no less than 0.3?
Response: N

Query: Would you say "CO[C@@H]1C=CCC(=O)N2CCC[C@H]2C(=O)OC[C@@H](C)C(=O)OC[C@H]1C" shows composite z-score at minimum 0.3?
Response: N

---

# EXPERIMENT: basal RPMI8226 viability, no added stimulus, profiling panel, cell-based, calcein-AM fluorescence, 48 h, PK04 Diversity Set (AID 1166);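 further: cells grown under basal conditions without added stimulus; test concentration not given here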
# CONDITION_CONTEXT: RPMI8226 myeloma viability, higher = more signal
Lab note: anything with z-score below -0.3 is marked yes; values at -0.3 or higher are marked no.

Query: Lab log: compare recorded z-score with -0.3; is it strictly lower for "COc1cccc([C@H]2Oc3ccc(OC)cc3C(=NO[C@@H](C)c3cn([C@H](CO)Cc4ccccc4)nn3)[C@@H]2O)c1" ?
Response: yes

Query: Would you kindly verify if z-score of CCOC(=O)[C@H](Cc1ccccc1)NC(=O)CCC1CC(OC(=O)NCCc2ccc(F)cc2)CC2(CCCC(COC(=O)NCC3CCCCC3)O2)O1 (some centres not stated) is strictly less than -0.3?
Response: no

Query: Answer whether the compound "CC(C)(C)N1C(=O)[C@H]2[C@H]3[C@H](O)[C@H](O)CC(=O)[C@H]3CC[C@H]2C1=O" has z-score strictly less than -0.3
Response: no

Query: Hi there! Is z-score for "COC(=O)CC=C[C@@H](C)[C@@H](C=NO[C@@H](C)c1cc(-c2c(C)cc(C)cc2C)no1)NS(=O)(=O)c1ccc(C)cc1" below -0.3, do you know?
Response: yes

Query: Is z-score strictly under -0.3 for the entry CCC1=NOC(CCC2CC(OC(=O)NCc3cccc4c3OCO4)CC3(CCCC(COC(=O)NCCc4ccccc4OC)O3)O2)C1 (configuration not stated) ?
Response: yes

Query: Hello, I'm reviewing records and need to know if z-score of CCOC(=O)[C@H](CC(C)C)NC(=O)CCC1CC(OC(=O)NCCc2ccc(F)cc2)CC2(CCCC(COC(=O)NCCc3ccc(Cl)cc3)O2)O1 (some centres not stated) is below -0.3. Could you check?
Response: yes

Query: Is it true that z-score reported for "CCCNC(=O)OC[C@H]1O[C@H](c2ccccc2)C=C[C@@H]1Oc1ccc(OC)cc1" is less than -0.3?
Response: no

---

Please go through the items and note down their composite z-score.
# EXPERIMENT: compound binding in COS7 lysate, probe aLAP1, primary screen, cell lysate, small-molecule microarray (AID 1124);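 further: lysate comes from COS7 cells expressing LAP1 and is applied at 0.3 µg/mL; score merges spot fluorescence near 667 nm with signal-to-noise over triplicate slides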
# CONDITION_CONTEXT: probe aLAP1, fluorescence, higher = more signal
Answers are plain numbers.

# COMPOUND, composite z-score
rows = [
    ("CC(CCN1CCCc2nc(C)c(C)cc21)=NO[C@@H](C)c1cc(-c2c(C)cc(C)cc2C)no1", 0.138),
    ("C=CC[C@@H]1C=C[C@H](ON=C(C)CCN2CCc3nc(-c4ccccc4)c(-c4ccccc4)cc3C2)[C@@H](CO)O1", -0.0995),
    ("CCOC(=O)[C@H](Cc1ccccc1)NC(=O)CCC1CC(OC(=O)NCc2ccc3c(c2)OCO3)CC2(CCCC(COC(=O)NCCC(C)C)O2)O1 (some centres undefined)", -0.133),
]

Turning to the following compound.
Query: Note down composite z-score recorded for CCOC(=O)[C@H](CC(C)C)NC(=O)CCC1CC(OC(=O)NCCc2ccc(F)cc2)CC2(CCCC(COC(=O)NCC3CCCCC3)O2)O1 (some centres undefined)
Response: 0.0165

---

# EXPERIMENT: A549 cell viability effects, profiling panel, calcein-AM fluorescence, 48 h, basal (AID 1162); further: test concentration not given here
# CONDITION_CONTEXT: higher = more signal
Give z-score for every item shown.
Give bare numbers.

# COMPOUND, REPORTED_MEASUREMENT
measured = [
    ("CO[C@H]1COC(=O)[C@H](C)NC(=O)CC=C[C@@H](C)[C@H](OC)COC(=O)[C@@H](OCc2ccccc2)C=C[C@@H]1C", 0.0192),
    ("CCOC(=O)[C@H](CC(C)C)NC(=O)CCC1CC(OC(=O)NCc2ccc3c(c2)OCO3)CC2(CCCC(COC(=O)NCC(c3ccccc3)c3ccccc3)O2)O1 (stereo not given in full)", -0.338),
]

Would you mind listing z-score for each of the following compounds?
1. C=Cc1ccc([C@H]2N[C@H](C(=O)O)CC[C@@H]2C)cc1
2. O=C1[C@H]2[C@H]3[C@H](O)[C@H](O)CC(=NOC[C@@H](O)COCc4ccco4)[C@H]3CC[C@H]2C(=O)N1Cc1ccccc1
3. COC(=O)[C@H](C)NC(=O)CCC1CC(OC(=O)NCc2ccc3c(c2)OCO3)CC2(CCCC(COC(=O)NCc3cccc(C(F)(F)F)c3)O2)O1 (stereo not given in full)
4. CCOC(=O)[C@H](Cc1ccccc1)NC(=O)CCC1CC(OC(=O)NCc2ccc3c(c2)OCO3)CC2(CCCC(COC(=O)NCCc3ccccc3OC)O2)O1 (stereo not given in full)
5. COc1ccc(O[C@@H]2[C@H](O)CO[C@H]2C=Cc2ccccc2)cc1
6. COc1cccc([C@H]2Oc3ccc(OC)cc3C(=NOC[C@@H](C)[C@H](OCc3ccccc3)C(C)C)[C@@H]2O)c1
7. CO[C@H]1COC(=O)CC=C[C@@H](C)[C@H](NS(=O)(=O)c2ccc(C)cc2)COC(=O)CCC[C@@H]1C
8. CC(C)CON=C1C[C@@H](O)[C@@H](O)[C@@H]2[C@@H]3C(=O)N(C(C)(C)C)C(=O)[C@@H]3CC[C@H]12

Response:
[-0.241, 0.172, -0.828, -1.24, 0.576, -0.956, 0.379, 0.539]

Provide z-score values for the following items, in order.
1. COC(=O)CC=C[C@@H](C)[C@@H](C=NOCC[C@@H]1C=C[C@H](OC(C)=O)[C@@H](COC(C)=O)O1)OC
2. C#CCCCON=C1C[C@@H](O)[C@@H](O)[C@@H]2[C@@H]3C(=O)N(c4cccc(Oc5ccccc5)c4)C(=O)[C@@H]3CC[C@H]12
3. O=C1[C@H]2[C@H]3[C@H](O)[C@H](O)CC(=NOCc4ccccc4)[C@@H]3CC[C@H]2C(=O)N1C[C@@H]1CCCO1
4. COc1ccc(O[C@H]2C=C[C@@H](c3ccccc3)O[C@@H]2CON=C2[C@H]3CCn4c(=O)n(-c5ccccc5)c(=O)n4[C@H]3[C@H](O)[C@@H]3O[C@H]23)cc1
5. CO[C@@H]1COC(=O)[C@@H](C)COC(=O)[C@@H](C)NC(=O)CC=C[C@@H]1C

Response:
1: 1.29; 2: 1.08; 3: -0.0287; 4: 0.455; 5: -0.448

---

# ASSAY_SYSTEM: Fibroblast growth factor 2 (Homo sapiens)
# EXPERIMENT: FGF2 binders on small-molecule microarrays, primary screen, biochemical, small-molecule microarray, 635/667 nm fluorescence (AID 1133)
# CONDITION_CONTEXT: small-molecule microarray binding, FGF2, fluorescence 635/667; higher = more signal
Give measured composite z-score for each item. Keep answers brief.
Give bare numbers.

Answered examples (2):
# COMPOUND, REPORTED_MEASUREMENT
data = [
    ("C[C@@H]1CC[C@H]2C(=O)O[C@@H](Cc3ccccc3)CN2[C@H]1c1ccc(Br)cc1", 0.297),
    ("Cc1ccc(S(=O)(=O)N[C@H]2COC(=O)CC=C[C@H](C)[C@@H](NS(=O)(=O)c3ccc(C)cc3)COC(=O)CC=C[C@@H]2C)cc1", 0.647),
]

// input: 7 compounds below; output: composite z-score for each
1. CC(CCN1CCCCc2nc(C)c(C)cc21)=NOC[C@@H](O)COCc1ccco1
2. CCOC(=O)[C@H](CC(C)C)NC(=O)CCC1CC(OC(=O)NCc2cccc3ccccc23)CC2(CCCC(COC(=O)NCCC(C)C)O2)O1 (some centres not stated)
3. C#CCCCON=C1C[C@@H](O)[C@@H](O)[C@@H]2[C@@H]3C(=O)N(c4cccc(Oc5ccccc5)c4)C(=O)[C@@H]3CC[C@H]12
4. COC(=O)CC=C[C@@H](C)[C@@H](C=NO[C@@H]1O[C@H](COC(C)=O)[C@@H](OC(C)=O)[C@H](OC(C)=O)[C@H]1OC(C)=O)OC
5. COC(=O)CC=C[C@@H](C)[C@@H](C=NO[C@@H](C)c1cn([C@H](CO)Cc2ccccc2)nn1)NS(=O)(=O)c1ccc(C)cc1
6. COc1cccc([C@H]2Oc3ccc(OC)cc3C(=NO[C@@H](C)c3cn([C@H](CO)Cc4ccccc4)nn3)[C@@H]2O)c1
7. C[C@@H](c1ccccc1)N1C(=O)[C@H]2[C@H]3[C@H](O)[C@H](O)CC(=NOCc4ccccc4)[C@H]3CC[C@H]2C1=O

Response:
[1.98, 0.92, -0.455, -0.347, 0.459, 0.109, 0.181]

Please go through the list and note composite z-score for each compound.
1. COC(=O)[C@@H]1CC[C@H](C)[C@@H](c2ccc(C)cc2)N1C(=O)c1ccc(C=NO[C@H](C)c2cn([C@H](CO)Cc3ccccc3)nn2)cc1
2. CCOC(=O)[C@H](CC(C)C)NC(=O)CCC1CC(OC(=O)NCc2cccc3ccccc23)CC2(CCCC(COC(=O)NCc3cccc(C(F)(F)F)c3)O2)O1 (some centres not stated)

Response:
1: 0.377; 2: 0.231

Dear colleague, could you please provide composite z-score for the compounds listed below?
1. CCN1C(=O)[C@@H]2[C@H]3C(=CC[C@@H]2C1=O)C1(OCCCO1)[C@H]1O[C@H]1[C@H]3O
2. CCN1C(=O)[C@H]2[C@H]3[C@H](O)[C@H](O)CC(=NOC[C@H]4O[C@H](c5ccccc5)C=C[C@@H]4Oc4ccc(OC)cc4)[C@@H]3CC[C@H]2C1=O
3. COC(=O)C1=C(C)N(Cc2ccccc2)[C@]23O[C@](C(=O)OC)(C(=O)N2[C@@H]1c1ccccc1)C(C(=O)OC)=C3C(=O)OC
4. COC(=O)[C@H](C)NC(=O)CCC1CC(OC(=O)NCc2cccc3ccccc23)CC2(CCCC(COC(=O)NCC(c3ccccc3)c3ccccc3)O2)O1 (some centres not stated)
5. CC(CCN1CCCc2nc(C)c(C)cc21)=NO[C@@H](C)c1cc(-c2c(C)cc(C)cc2C)no1
6. CC(C)[C@@H](OCc1ccccc1)[C@H](C)C=NOC[C@@H](O)COCc1ccco1
7. C#CCCCON=C1C[C@@H](O)[C@@H](O)[C@@H]2[C@@H]3C(=O)N(c4ccc(F)cc4F)C(=O)[C@@H]3CC[C@H]12

Response:
0.944
1.01
0.808
0.227
0.388
-1.37
0.322
